Origin of the recorded values: patent US9260429B2

assayed_system: human recombinant histamine H1 receptor (Homo sapiens, UniProt P35367)
Construct: expressed in transfected cells; host or cells: CHO cells
Sequence (P35367 whole entry): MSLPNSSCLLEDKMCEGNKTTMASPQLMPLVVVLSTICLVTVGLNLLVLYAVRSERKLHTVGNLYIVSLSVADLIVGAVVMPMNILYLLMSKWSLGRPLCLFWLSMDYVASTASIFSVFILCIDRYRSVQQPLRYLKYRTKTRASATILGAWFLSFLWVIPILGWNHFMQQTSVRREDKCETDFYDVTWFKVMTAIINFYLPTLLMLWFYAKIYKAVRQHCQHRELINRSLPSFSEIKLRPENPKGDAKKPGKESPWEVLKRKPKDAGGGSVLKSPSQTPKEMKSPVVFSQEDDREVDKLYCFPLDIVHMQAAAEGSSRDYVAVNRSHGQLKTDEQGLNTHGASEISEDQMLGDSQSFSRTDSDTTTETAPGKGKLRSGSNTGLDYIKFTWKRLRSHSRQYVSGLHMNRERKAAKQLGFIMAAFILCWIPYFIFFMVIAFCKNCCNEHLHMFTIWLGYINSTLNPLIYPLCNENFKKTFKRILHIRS
procedure_text: Histamine H1 radioligand binding ([3H]Pyrilamine)
run_parameters: 1 μM; read-out: Binding data (Percentage Inhibition) Histamine Binding (1 μM) H1
property: inhibition at 1 µM (%)
Numeric only. Scale: %

* C/C(=C\n1c2c(c3cc(Cl)ccc31)CCN(C)C2)c1ccc(F)cc1 | 29
* Cc1ccc(CCCn2c3c(c4cc(Cl)ccc42)CCN(C)C3)cn1 | 30
* C/C(=C\n1c2c(c3cc(C)ccc31)CCN(C)C2)c1ccc(Cl)cc1 | 20
* CC1c2c(c3cc(Cl)ccc3n2C#Cc2ccc(F)cc2)CCN1C (centres unmarked) | 32

Okay, now this compound:
Entry C#CCn1c2c(c3cc(Cl)ccc31)CCN(C)C2 has what inhibition at 1 µM?
83

====

assayed_system: human recombinant serotonin (5-Hydroxytryptamine) 5-HT6 receptor (Homo sapiens, UniProt P50406)
Construct: expressed in transfected cells; host or cells: human HeLa cells
Sequence (P50406 whole entry): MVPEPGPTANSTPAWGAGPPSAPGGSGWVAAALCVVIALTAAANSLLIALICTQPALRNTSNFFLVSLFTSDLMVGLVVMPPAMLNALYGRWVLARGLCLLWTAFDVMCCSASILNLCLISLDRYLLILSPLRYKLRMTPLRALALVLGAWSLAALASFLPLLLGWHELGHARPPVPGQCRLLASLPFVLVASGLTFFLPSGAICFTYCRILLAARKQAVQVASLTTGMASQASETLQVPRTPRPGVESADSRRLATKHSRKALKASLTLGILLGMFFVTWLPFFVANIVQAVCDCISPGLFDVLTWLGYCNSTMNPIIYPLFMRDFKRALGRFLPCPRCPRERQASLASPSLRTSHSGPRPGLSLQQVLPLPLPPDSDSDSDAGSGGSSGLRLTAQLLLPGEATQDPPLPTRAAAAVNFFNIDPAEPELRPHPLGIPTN
procedure_text: Serotonin 5-HT6 radioligand binding ([3H]LSD)
run_parameters: compound concentration 10 nM; read-out: Percentage inhibition of ligand binding to 5-HT6 receptor
Procedure: To evaluate in radioligand binding assays the activity of compounds of the invention, human recombinant serotonin (5-Hydroxytryptamine) 5-HT6 receptor expressed in human HeLa cells (Monsma, F. J. Jr. et al., Mol. Pharmacol. 43:320, 1993) in a modified Tris-HCl buffer (50 mM Tris-HCl, pH 7.4, 150 mM NaCl, 2 mM Ascorbic Acid, 0.001% BSA) was used. […] Receptor proteins were filtered and washed, the filters were then counted to determine [3H]LSD specifically bound. […]
property: inhibition at 0.01 µM (%)
Response body: numeric value in %, unit text excluded.

• Cc1ccc2c(c1)c1c(n2/C=C/c2ccccc2)CN(C)CC1 = 14
• C/C(=C\n1c2c(c3cc(C)ccc31)CCN(C)C2)c1ccc(F)cc1 = 42
• C/C(=C\n1c2c(c3cc(C)ccc31)CCN(C)C2C)c1ccccc1F (stereo not shown) = 13

Okay, next one:
Give its inhibition at 0.01 µM value. Item: C/C(=C\n1c2c(c3cc(Cl)ccc31)CCN(C)C2)c1ccc(F)cc1
32

====

Measured inhibition at 1 µM, listed per entry.
assayed_system: human recombinant dopamine D2L receptor (Homo sapiens, UniProt P14416)
Construct: expressed in transfected cells; host or cells: CHO cells
Sequence (P14416 whole entry): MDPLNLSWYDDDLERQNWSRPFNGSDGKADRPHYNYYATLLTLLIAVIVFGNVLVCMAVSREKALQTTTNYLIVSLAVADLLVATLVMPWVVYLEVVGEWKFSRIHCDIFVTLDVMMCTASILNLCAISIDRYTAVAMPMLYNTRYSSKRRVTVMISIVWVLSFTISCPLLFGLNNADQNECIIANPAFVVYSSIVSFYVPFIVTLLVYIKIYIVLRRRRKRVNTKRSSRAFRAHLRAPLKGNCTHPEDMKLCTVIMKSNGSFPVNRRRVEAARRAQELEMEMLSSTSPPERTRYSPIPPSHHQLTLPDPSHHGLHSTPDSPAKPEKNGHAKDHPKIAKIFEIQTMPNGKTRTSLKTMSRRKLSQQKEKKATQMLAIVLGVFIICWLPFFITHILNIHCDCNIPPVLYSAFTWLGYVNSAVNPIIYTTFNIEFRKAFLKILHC
procedure_text: Dopamine D2L radioligand binding ([3H]Spiperone)
run_parameters: 2 h, 1 μM ligand conc.; read-out: Percent Inhibition of ligand binding Dopamine (1 μM ligand conc.) D2L
Description: To evaluate in radioligand binding assays the activity of compounds of the invention, human recombinant dopamine D2L receptor expressed in Chinese hamster ovary (CHO) cells (Grandy, D. K. et al. Proc. Natl. Acad. Sci. USA. 86:9762, 1989; Hayes, G. et al., Mol. Endocrinol. 6:920, 1992) in a modified Tris-HCl buffer (50 mM Tris-HCl, pH 7.4, 1.4 mM Ascorbic Acid, 0.001% BSA, 150 mM NaCl) was used. Compounds of the invention were incubated with 0.16 nM [^3H]Spiperone for 120 minutes at 25° C. […]
Your answer is read as %, so omit the unit and give the number.

Solved entries (count: 5):
• CC1CCN(C(=O)Cn2c3c(c4cc(Cl)ccc42)CCN(C)C3)CC1 = -8
• C/C(=C\n1c2c(c3cc(Cl)ccc31)CCN(C)C2C)c1ccc(Cl)cc1 (stereo not drawn) = -7
• CCC1c2c(c3cc(Cl)ccc3n2/C=C(\C)c2ccc(F)c(F)c2)CCN1C (stereo not drawn) = 12
• CCC1c2c(c3cc(C)ccc3n2/C=C(\C)c2ccc(Cl)c(Cl)c2)CCN1C (stereo not drawn) = 9
• Cc1ccc2c(c1)c1c(n2CC(C)(O)c2ccc(F)cc2)CN(C)CC1 (stereo not drawn) = 41

Endpoint output: inhibition at 1 µM of C/C(=C\n1c2c(c3cc(C)ccc31)CCN(C)C2C)c1ccc(Cl)cc1Cl (stereo not drawn) . Value?
3

What inhibition at 1 µM value was documented for this molecule, C/C(=C/n1c2c(c3cc(Cl)ccc31)CCN(C)C2C)c1ccccc1F (stereo not drawn) ?
22

Which inhibition at 1 µM is reported for this molecule? Cc1ccc2c(c1)c1c(n2CCc2ccc(C)nc2)CN(C)CC1
6

What value of measured inhibition at 1 µM is listed for CCC1c2c(c3cc(Cl)ccc3n2/C=C(\C)c2ccc(Cl)cc2)CCN1C (stereo not drawn) ?
-11
